Assay: qHTS of pediatric cancer cell lines to identify multiple opportunities for drug repurposing: Primary screen for BT-12 cells (AID 1347101); also: nearly all actives have a fitted effect of over 25% in size
Conditions: BT-12 viability, CellTiter-Glo luminescence, 48 h; series mostly up to 57.3 µM
Method: Drug repurposing or repositioning has been offered as a strategy for drug development in oncology programs. […] [1] Shen, M et al. Quantitative high-throughput phenotypic screening of pediatric cancer cell lines identifies multiple opportunities for drug repurposing. […] Cells were assayed in growth media at a density of 500-1,000 cells/well. […] After a 15 min incubation at room temperature, samples were analyzed for luminescence intensity using a ViewLux High-throughput CCD imager equipped with clear filters.
Records with an inconclusive call do not appear. Calls of active or inactive are those of the source. Calls follow the shape of the dose curve; as a rule, active = well fitted cell-killing curve with a large enough effect; inconclusive = small, poorly fitted or top-dose-only effect; inactive = flat fitted curve, though single readings scatter.
Assign a class; possible classes are active, inactive

>>> assigned_category("Cc1cnn(C)c1C(=O)Nc1cc(Nc2ccc3c(C=Cc4ccccn4)n[nH]c3c2)ccc1F")
"active"
>>> assigned_category("CCc1cnn2c(NCc3ccc[n+]([O-])c3)cc(N3CCCC[C@@H]3CCO)nc12")
"active"
>>> assigned_category("CC(=O)ON=C1C(c2c(O)[nH]c3cc(Br)ccc23)=Nc2ccccc21")
"active"

Task: What call does the record list for `COc1cc(OC)cc(-c2ccc3ncc4ccc(=O)n(-c5ccc(N6CCNCC6)c(C(F)(F)F)c5)c4c3c2)c1` ?
Result: active

Task: What call does the record list for CC(C(C)N1CC(=O)NC(=O)C1)N1CC(=O)NC(=O)C1 (configuration not stated) ?
Result: inactive

Task: What call does the record list for `Cc1cn([C@@H]2O[C@H](CO)[C@@H](O)[C@H]2F)c(=O)[nH]c1=O` ?
Result: inactive

Task: What call does the record list for `CC(C)Oc1ccc(C(=O)N[C@H](CNC(=O)CN(C)C)Cc2ccc(-c3cn4cccc([C@H](C)O)c4n3)cc2)cc1Cl` ?
Result: active

Task: What call does the record list for Oc1cc2c(cc1O)C1c3ccc(O)c(O)c3OCC1(O)C2 (configuration not stated) ?
Result: inactive

---

Experiment: Quantitative High-Throughput drug screen in 47 multiple myeloma cell lines against the NCATS MIPE library collection: Karpas25_ECACC cell viability assay (AID 1918968; also: nearly all actives have a fitted effect of over 35% in size; also: potency is read from the fitted curve at half-maximal effect)
Conditions: Karpas25 myeloma viability, CellTiter-Glo ATP, 48 h; series mostly up to 45.8 µM
Records with an inconclusive call do not appear. Activity calls are given as the source filed them. The call rests on the fitted dose curve; in most records, active means well fitted cell-killing curve with a large enough effect; inconclusive means small, poorly fitted or top-dose-only effect, or effect the other way; inactive means no such curve, though single readings can be large or run the other way.
Outcome Measure: Potency

Please review the entries below; each comes with its answer.
>>> observed_value("CC(=O)O[C@]1(C(C)=O)CC[C@H]2[C@@H]3C=C(C)C4=CC(=O)CC[C@]4(C)[C@@H]3CC[C@@]21C")
"8.33 µM (active)"
>>> observed_value("CCNC(=O)Nc1ccc(-c2nc3c(c(N4CCOC[C@H]4C)n2)CCN(C2COC2)C3)cc1")
"0.935 µM (active)"
>>> observed_value("Nc1ccn(C[C@@H](CO)OCP(=O)(O)O)c(=O)n1")
"inactive"
>>> observed_value("COC(=O)C1C2CC3c4[nH]c5cc(OC)ccc5c4CCN3CC2CC(OC(=O)c2cc(OC)c(OC)c(OC)c2)C1OC (centres undefined)")
"23.5 µM (active)"
>>> observed_value("O=c1ccn([C@@H]2O[C@H](CO)[C@H](O)[C@@H]2F)c(=O)[nH]1")
"9.35 µM (active)"
>>> observed_value("Cn1cc(C=CC(=O)c2cccc(F)c2)cc1C=CC(=O)NO")
"8.33 µM (active)"
>>> observed_value("OCc1ccccc1O[C@@H]1O[C@H](CO)[C@H](O)[C@H](O)[C@H]1O")
"inactive"
>>> observed_value("CCCCCCCCCCCCc1ccc(S(=O)(=O)Nc2nncs2)cc1")
"inactive"
>>> observed_value("Cc1cnc(Nc2ccc(CN3CCOCC3)cc2)nc1Nc1cccc(S(=O)(=O)NC(C)(C)C)c1")
"1.32 µM (active)"
>>> observed_value("CC(=O)OCC(=O)[C@@]1(O)CC[C@H]2[C@@H]3CCC4=CC(=O)CC[C@]4(C)[C@@H]3C(=O)C[C@@]21C")
"inactive"

Task: For the molecule `N#Cc1cc(NC(=O)Nc2nnc(-c3ccncc3)s2)ccc1-c1cn[nH]c1` , what Potency is on record?
Result: inactive

Task: For the molecule `CC(=O)N[C@H]1[C@@H]([C@H](O)[C@H](O)CO)OC(C(=O)O)=C[C@@H]1N=C(N)N` , what Potency is on record?
Result: inactive

Task: For the molecule `Cn1cc(-c2ccc3ncc(Cc4ccc5ncccc5c4)n3n2)cn1` , what Potency is on record?
Result: inactive

Task: For the molecule `O=c1c(O)c(-c2ccc(O)c(O)c2)oc2cc(O)ccc12` , what Potency is on record?
Result: 8.33 µM (active)

---

Tested on: KB-3-1
Experiment: Cytotoxic Profiling of Annotated Libraries Using Quantitative High-Throughput Screening (AID 1296008); also: nearly all actives have a fitted effect of over 60% in size; also: potency is read from the fitted curve at half-maximal effect
Settings: Five cell lines viability, CellTiter-Glo ATP luminescence, 48-72 h
Records with an inconclusive call do not appear. The source made the active and inactive calls. Calls come from the whole dose curve; as a rule, active = well fitted inhibition curve with a large enough effect; inconclusive = small, poorly fitted or top-dose-only effect; inactive = flat fitted curve, though single readings scatter.
Outcome Measure: Potency

>>> observed_value("CNC(=O)c1ccc(Nc2cc(Nc3ccccc3S(=O)(=O)C(C)C)c3cc[nH]c3n2)nc1")
"1.32 µM (active)"
>>> observed_value("Nc1ccn(C[C@@H](CO)OCP(=O)(O)O)c(=O)n1")
"inactive"
>>> observed_value("COc1ccc([C@@H]2CNC(=O)C2)cc1OC1CCCC1")
"inactive"

---

Test: qHTS of pediatric cancer cell lines to identify multiple opportunities for drug repurposing: Primary screen for SK-N-MC cells (AID 1347093)
Conditions: SK-N-MC viability, CellTiter-Glo luminescence, 48 h; series mostly up to 46 µM
Inconclusive results are not listed. Active and inactive are the calls of the source. Calls come from the whole dose curve; as a rule, active = well fitted cell-killing curve with a large enough effect; inconclusive = small, poorly fitted or top-dose-only effect; inactive = no such curve, though single readings can be large or run the other way.
Assign a class; possible classes are y (active), n (inactive)

As a guide, the following entries are already answered.
>>> assigned_category("CC(C)C[C@H](NC(=O)[C@@H](NC(=O)c1cccc(-c2ccccc2)n1)[C@@H](C)O)B(O)O")
"y"
>>> assigned_category("CC(=O)OCC(=O)[C@@]1(O)CC[C@H]2[C@@H]3CCC4=CC(=O)CC[C@]4(C)[C@@H]3C(=O)C[C@@]21C")
"n"
>>> assigned_category("CCC(C(=O)O)C1CCC(C)C(C(C)C(O)C(C)C(=O)C(CC)C2OC3(C=CC(O)[C@@]4(CC[C@](C)(C5CC[C@@](O)(CC)C(C)O5)O4)O3)C(C)CC2C)O1 (some centres undefined)")
"y"
>>> assigned_category("COc1cc(C=CC(=O)CC(=O)C=Cc2ccc(O)c(OC)c2)ccc1O")
"y"
>>> assigned_category("COc1cc([C@@H]2c3cc4c(cc3[C@H](O)[C@H]3COC(=O)[C@@H]23)OCO4)cc(OC)c1OC")
"y"
>>> assigned_category("C[C@H]1O[C@H](O[C@H]2[C@H](O)[C@@H](O)[C@@H](O[C@H]3[C@H](O)[C@@H](O)C(O)O[C@H]3CO)O[C@H]2CO)[C@H](O)[C@@H](O)[C@H]1N[C@H]1C=C(CO)[C@@H](O)[C@H](O)[C@@H]1O (some centres undefined)")
"y"

Task: What call does the record list for `CC(=O)[C@]1(O)Cc2c(O)c3c(c(O)c2[C@@H](O[C@H]2C[C@H](N)[C@@H](O)[C@H](C)O2)C1)C(=O)c1ccccc1C3=O` ?
Result: y

Task: What call does the record list for Nc1nc(=O)n([C@H]2CSC(CO)O2)cc1F (some centres undefined) ?
Result: n

Task: What call does the record list for C[C@@H]1CC[C@@]2(OC1)OC1CC3C4CC=C5CC(O)CCC5(C)C4CCC3(C)C1[C@@H]2C (some centres undefined) ?
Result: n

---

Experiment: qHTS of pediatric cancer cell lines to identify multiple opportunities for drug repurposing: Primary screen for Saos-2 cells (AID 1347097); also: nearly all actives have a fitted effect of over 40% in size
Conditions: Saos-2 viability, CellTiter-Glo ATP luminescence, 48 h; series mostly up to 46 µM
Inconclusive results are not listed. Calls of active or inactive are those of the source. Calls come from the whole dose curve; as a rule, active = well fitted cell-killing curve with a large enough effect; inconclusive = small, poorly fitted or top-dose-only effect; inactive = no such curve, though single readings can be large or run the other way.
Assign a class; possible classes are t (active), f (inactive)

>>> assigned_category("CN(C)CC[C@H](c1ccc(Cl)cc1)c1ccccn1")
"f"
>>> assigned_category("CN1[C@H]2CC(OC(=O)[C@@H](CO)c3ccccc3)C[C@H]1[C@H]1O[C@H]12 (some centres undefined)")
"f"
>>> assigned_category("COc1ccc(C[C@@H](C)[C@@H](C)Cc2ccc(OC)c(OC)c2)cc1OC")
"t"

Next up:
Task: What call does the record list for Nc1ccn(C2CO[C@H](CO)O2)c(=O)n1 (some centres undefined) ?
Result: f

---

Assay: qHTS of pediatric cancer cell lines to identify multiple opportunities for drug repurposing: Confirmatory screen for Rh18 cells (AID 1347125);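 also: cells exposed to compound for 48 h; nearly all actives have a fitted effect of over 55% in size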; also: potency is read from the fitted curve at half-maximal effect
Details: Rh18 rhabdomyosarcoma cells, viability; series mostly up to 45.9 µM
Records with an inconclusive call do not appear. Calls of active or inactive are those of the source. The call rests on the fitted dose curve; in most records, active means well fitted cell-killing curve with a large enough effect; inconclusive means small, poorly fitted or top-dose-only effect, or effect the other way; inactive means flat fitted curve, though single readings scatter.
Outcome Measure: Potency

Please review the entries below; each comes with its answer.
>>> observed_value("Cc1cnc(Nc2ccc(N3CCN(C)CC3)cc2)nc1Nc1cccc(S(=O)(=O)NC(C)(C)C)c1")
"2.93 µM (active)"
>>> observed_value("CCN(CC)CCNC(=O)c1c(C)[nH]c(C=C2C(=O)Nc3ccc(F)cc32)c1C")
"26.9 µM (active)"
>>> observed_value("N#Cc1c(C2CCNCC2)cc(-c2c(O)cccc2OCC2CC2)nc1N")
"inactive"
>>> observed_value("Cc1[nH]c(C=C2C(=O)Nc3ccccc32)c(C)c1CCC(=O)O")
"inactive"

As a next step, examine the compound that follows.
Task: For the compound `COc1cc(C[C@@H](CO)[C@H](CO)Cc2ccc(O)c(OC)c2)ccc1O` , what Potency is on record?
Result: inactive

Reference for the values: PubChem BioAssay (NCATS)
